List of IC50 values.
measured.target: NAMPT (Homo sapiens, UniProt P43490)
Construct: His tag; host or cells: E. coli
Sequence (P43490 whole entry): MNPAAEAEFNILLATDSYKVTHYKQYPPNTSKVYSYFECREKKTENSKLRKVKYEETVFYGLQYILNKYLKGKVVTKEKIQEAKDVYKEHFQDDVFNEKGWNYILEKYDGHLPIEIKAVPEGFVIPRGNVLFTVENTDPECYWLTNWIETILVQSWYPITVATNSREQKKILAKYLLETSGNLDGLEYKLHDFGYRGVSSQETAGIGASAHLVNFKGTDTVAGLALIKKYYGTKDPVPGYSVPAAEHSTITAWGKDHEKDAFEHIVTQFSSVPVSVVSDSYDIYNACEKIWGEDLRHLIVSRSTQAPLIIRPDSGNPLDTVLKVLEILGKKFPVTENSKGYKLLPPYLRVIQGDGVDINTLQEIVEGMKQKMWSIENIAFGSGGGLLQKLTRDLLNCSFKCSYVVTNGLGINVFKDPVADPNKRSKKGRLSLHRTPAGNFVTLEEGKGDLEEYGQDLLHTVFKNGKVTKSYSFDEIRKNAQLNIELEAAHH
assay.comment: Biochemical inhibition assay: NAMPT enzymatic reaction, NMN quantified by mass spectrometry
measurement.parameters: NAMPT enzymatic assay; read-out: Biochem IC50
Numeric answer only, unit nM assumed.

Query: IC50; subject: C#CCOc1ccc(Cl)cc1S(=O)(=O)c1ccc(CNC(=O)c2ccc3nccn3c2)cc1
7

Quick one: IC50 for CN1CCN(c2ccc(S(=O)(=O)c3ccc(CNC(=O)c4cnc5[nH]ncc5c4)cc3)cc2)CC1 ?
4

For the compound shown here, O=C(NCc1ccc(S(=O)(=O)c2cccc(OC(F)(F)F)c2)cc1)c1ccc2nccn2c1 , give the reported IC50.
8.73

---

measured.target: NAMPT (Homo sapiens, UniProt P43490)
Construct: His tag; host or cells: E. coli
assay.comment: Biochemical inhibition assay: NAMPT enzymatic reaction, NMN quantified by mass spectrometry
measurement.parameters: NAMPT enzymatic reaction; read-out: Biochem IC50
quantity: pIC50
Keep in mind that pIC50 stands for -log10 of concentration in molar terms.

Solved cases below.
[
  {
    "molecular.string": "CCOc1ccc(S(=O)(=O)c2ccc(CNC(=O)c3cnc4[nH]ncc4c3)cc2)cc1F",
    "reading": 8.02
  },
  {
    "molecular.string": "COc1c(C)cc(S(=O)(=O)c2ccc(CNC(=O)c3ccc4nccn4c3)cc2)cc1C",
    "reading": 7.84
  },
  {
    "molecular.string": "Cc1ccc(S(=O)(=O)c2ccc(CNC(=O)c3cc4ccncc4o3)cc2)cc1C",
    "reading": 7.82
  },
  {
    "molecular.string": "O=C(NCc1ccc(S(=O)(=O)c2ccc(Cl)c(F)c2)cc1)c1cc2cnccc2[nH]1",
    "reading": 8.10
  }
]

If you can, please state the reported pIC50 value of CCCCOc1ccc(Cl)cc1S(=O)(=O)c1ccc(CNC(=O)c2ccc3nccn3c2)cc1 .
7.96

---

measured.target: NAMPT (Homo sapiens)
Construct: His tag; host or cells: E. coli
assay.comment: Biochemical inhibition assay: NAMPT enzymatic reaction, NMN quantified by mass spectrometry
measurement.parameters: NAMPT enzymatic assay; read-out: Biochem IC50
quantity: pIC50
Remember the convention: pIC50 equals -log10 of concentration in molar.

These solved cases illustrate the format of a correct answer.
[
  {
    "molecular.string": "O=C(NCc1ccc(S(=O)(=O)c2cc(F)ccc2CO)cc1)c1cc2ccncc2o1",
    "pIC50": 7.64
  },
  {
    "molecular.string": "COc1ccc(OC)c(S(=O)(=O)c2ccc(CNC(=O)c3cc4cnccc4[nH]3)cc2)c1",
    "pIC50": 7.77
  }
]

In the following, a different compound is considered.
Query (compound): Cc1ccncc1S(=O)(=O)c1ccc(CNC(=O)c2cc3ccncc3o2)cc1 ; field requested: pIC50
7.60

---

measured.target: NAMPT (Homo sapiens, UniProt P43490)
Construct: His tag; host or cells: E. coli
assay.comment: Biochemical inhibition assay: NAMPT enzymatic reaction, NMN quantified by mass spectrometry
measurement.parameters: NAMPT enzymatic reaction; read-out: Biochem IC50
// reported IC50 for each item listed
Your answer is read as nM, so omit the unit and give the number.

[
  {
    "molecular.string": "CCOc1ccc(S(=O)(=O)c2ccc(CNC(=O)c3cnc4nccn4c3)cc2)cc1",
    "measured.target": "NAMPT (Homo sapiens, UniProt P43490)",
    "reading": 2
  }
]

Using the record for Cc1ccc(S(=O)(=O)c2ccc(CNC(=O)c3ccc4nccn4c3)cc2)cc1F , report its IC50.
13.3

Need IC50 of Cc1cc(S(=O)(=O)c2ccc(CNC(=O)c3cnc4nccn4c3)cc2)ccc1F , thanks.
2.2

Report IC50 for COc1ccc(S(=O)(=O)c2ccc(CNC(=O)c3cc4ccncc4s3)cc2)c(OC)c1 please.
4.5

Consider the compound shown here: Cc1ccc(S(=O)(=O)c2ccc(CNC(=O)c3cnc4nccn4c3)cc2)c(F)c1 What is its recorded IC50?
6.3

Consider the compound shown here: COc1ccc(S(=O)(=O)c2ccc(CNC(=O)c3cnc4nccn4c3)cc2)cc1Cl What is its recorded IC50?
1.8

Reported IC50 for COc1cc(C(F)(F)F)ccc1S(=O)(=O)c1ccc(CNC(=O)c2cc3ccncc3s2)cc1 : what is it?
9

Field request: IC50 | item: NS(=O)(=O)c1cccc(S(=O)(=O)c2ccc(CNC(=O)c3cc4ccncc4s3)cc2)c1
2

Item COc1c(F)cccc1S(=O)(=O)c1ccc(CNC(=O)c2ccc3nccn3c2)cc1 has what recorded IC50?
76.9

Return reported IC50; argument: O=C(NCCc1ccc(S(=O)(=O)c2ccccc2)cc1)c1cc2cnccc2[nH]1
410

Reported IC50 for CC(=O)c1ccccc1NS(=O)(=O)c1ccc(CNC(=O)c2cc3cnccc3[nH]2)cc1 : what is it?
5

---

measured.target: NAMPT (Homo sapiens, UniProt P43490)
Construct: His tag; host or cells: E. coli
assay.comment: Biochemical inhibition assay: NAMPT enzymatic reaction, NMN quantified by mass spectrometry
measurement.parameters: NAMPT enzymatic assay; read-out: Biochem IC50
quantity: pIC50
// pIC50 is dimensionless: -log10 of concentration (M)

Sample records with pIC50:
[
  {
    "molecular.string": "N#CC1(c2ccc(S(=O)(=O)c3ccc(CNC(=O)c4ccc5nccn5c4)cc3)cc2)CCCC1",
    "quantity": "pIC50",
    "reading": 7.97
  },
  {
    "molecular.string": "Cn1cc2ccc(S(=O)(=O)c3ccc(CNC(=O)c4cc5ccncc5s4)cc3)cc2n1",
    "quantity": "pIC50",
    "reading": 8.85
  },
  {
    "molecular.string": "CN(C)c1ccc(S(=O)(=O)c2ccc(CNC(=O)c3cc4ccncc4o3)cc2)cn1",
    "quantity": "pIC50",
    "reading": 8.52
  }
]

Recorded pIC50 of CSc1ccc(S(=O)(=O)c2ccc(CNC(=O)c3cc4ccncc4s3)cc2)cc1F , please.
8.66

Requested read-out: pIC50. Entry: O=C(NCc1ccc(S(=O)(=O)c2cnc3ccccc3c2)cc1)c1cc2ccncc2s1
8.36

Please give the measured pIC50 for this compound: O=C(NCc1ccc(S(=O)(=O)c2cnc3n2CCCCC3)cc1)c1cnc2[nH]ncc2c1
7.50

Entry O=C(NCc1ccc(S(=O)(=O)c2cccc(N3CCCC3)c2)cc1)c1cnc2[nH]ncc2c1 : reported pIC50 = ?
7.77

Look up pIC50: O=C(NCc1ccc(S(=O)(=O)c2ccc3ncccc3c2)cc1)c1cnc2nccn2c1
8.48

Any idea what its pIC50 is? The compound is O=C(NCc1ccc(S(=O)(=O)c2cc(F)cc(N3CCCC3)c2)cc1)c1cnc2nccn2c1
8.51

Item Cc1ccc(S(=O)(=O)c2ccc(CNC(=O)c3ccc4nccn4c3)cc2)cn1 has what recorded pIC50?
7.67

Give its pIC50 value. Item: O=C(NCc1ccc(S(=O)(=O)c2csc(-c3cccc(F)c3)n2)cc1)c1cnc2[nH]ncc2c1
7.57

So what does the record say about pIC50 for Cc1cc(C)n(-c2cccc(S(=O)(=O)c3ccc(CNC(=O)c4cc5cnccc5[nH]4)cc3)c2)n1 ?
7.88

Could you share which pIC50 value was measured for O=C(NCc1ccc(S(=O)(=O)c2cc(F)ccc2CO)cc1)c1cc2cnccc2[nH]1 ?
7.77

---

measured.target: NAMPT (Homo sapiens)
Construct: His tag; host or cells: E. coli
assay.comment: Biochemical inhibition assay: NAMPT enzymatic reaction, NMN quantified by mass spectrometry
measurement.parameters: NAMPT enzymatic reaction; read-out: Biochem IC50
pIC50: recorded values
Just so you know, pIC50 here is -log10 of the concentration in molar units; reply with that number alone.

[
  {
    "molecular.string": "CCCOc1ccc(S(=O)(=O)c2ccc(CNC(=O)c3cnc4nccn4c3)cc2)c(C)c1",
    "quantity": "pIC50",
    "reading": 8.00
  }
]

// next item, pIC50 requested
Field request: pIC50 | item: CCCCOc1ccc(S(=O)(=O)c2ccc(CNC(=O)c3ccc4nccn4c3)cc2)c(C)c1
8.00

---

measured.target: NAMPT (Homo sapiens, UniProt P43490)
Construct: His tag; host or cells: E. coli
assay.comment: Biochemical inhibition assay: NAMPT enzymatic reaction, NMN quantified by mass spectrometry
measurement.parameters: NAMPT enzymatic reaction; read-out: Biochem IC50
From the text: Biochemical Inhibition Assay NAMPT Protein Purification Recombinant His-tagged NAMPT was produced in E. coli cells, purified over a Ni column, and further purified over a size-exclusion column by XTAL Biostructures. The NAMPT Enzymatic Reaction […] A mass spectrometry-based assay was used to measure the NAMPT reaction product (NMN) and the internal control (L-Cystathionine). NMN and L-Cystathionine were detected using the services of Biocius Lifesciences with the RapidFire system. […]
# pIC50 annotations
Interpret pIC50 as the negative base-10 log of the concentration measured in mol/L.

Example cases with answers are listed next.
[
  {
    "molecular.string": "COc1ccc(S(=O)(=O)c2ccc(CNC(=O)c3ccc4nccn4c3)cc2)cc1F",
    "pIC50": 8.23
  },
  {
    "molecular.string": "COc1ccc(C(C)C)cc1S(=O)(=O)c1ccc(CNC(=O)c2cc3ccncc3s2)cc1",
    "pIC50": 8.05
  }
]

Tell me the measured pIC50 of O=C(NCc1ccc(S(=O)(=O)c2ccc(F)cc2Cl)cc1)c1cnc2nccn2c1 , please.
7.84
